# System: PPARg DBDmut IVT, anti-PPARg (DBD mutation: PPARg1 K132A/R137A, NR concentration 270 nM)
# Procedure Summary: PBM binding z-score (relative to random genomic background probes); higher = stronger binding; sequences stand for … in GC…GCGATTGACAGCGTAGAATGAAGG
Attribute Measured: PBM binding z-score

Q. Look at this sequence and give its reported PBM binding z-score. ACTAGCACGCCAAGGGTCACTCAAGATTAGTCCG
A. -0.0799

Q. What about this sequence? GCGACTGGGGCAAACCAGGTTACCATAAGGTTGG
A. -0.639

Q. What about this sequence? GCTCGGAGGCCAAGGTCAGAGCTTTGTCCGTAGA
A. -1.94

Q. What about this sequence? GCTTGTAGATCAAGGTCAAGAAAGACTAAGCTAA
A. -0.296

Q. What about this sequence? TTTATTAGTTGATTAGGGCAACCGAAACAGCGGA
A. 1.94

Q. What about this sequence? CGTCCAAGGTCAGCATGTCAGTGAAAGCGACGTG
A. -0.674

Q. What about this sequence? GCTCGGAGGACAAGGTTAGAGCTTTGTCCGTAGA
A. -0.888

Q. What about this sequence? ATCTCTAGGTAAAGATAGTTCCGTGAATGCAAAT
A. 0.949

Q. What about this sequence? TCATATAGGTAAATGCTAGGTGCAAGTCCGATCT
A. 0.918

Q. What about this sequence? CAAACTCGGTCACGAAAGGTCAAAGTCGAATGAC
A. 0.821

Q. What about this sequence? AGATTGAGGTTATTAAGATCAGGGAATTGCGGTC
A. 0.969

Q. What about this sequence? CGTCCAAAGTCAATGCTAGGTCAGTGAAAGCATT
A. -0.616

Q. What about this sequence? CCTAGCAGGCCGATCTGGGTCACTCAAGGCTTGA
A. -1.18

Q. What about this sequence? CCTACTGGGCCTAAAAGGTCATTGATGCCGATAA
A. -1.2

Q. What about this sequence? TAGCCAAGGTCATGCGGGCCAGTATAGTGTCGGC
A. 0.504

Q. What about this sequence? ATCTCTGGGTAACCAAGTTCAGTGAATGCCGAAC
A. 1.24

Q. What about this sequence? TCTTGTAGATCAACAGGTTAAGAAAGCTGGCCAA
A. 0.206

Q. What about this sequence? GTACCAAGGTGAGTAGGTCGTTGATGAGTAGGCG
A. -1.14

Q. What about this sequence? TCTATTAATTGAAGGGCAACCGACGAGTCCGTTT
A. 1.02

Q. What about this sequence? TATACAGGGTAAAAGGCCAGAGTACGAATGTCGA
A. 1.04

Q. What about this sequence? GCATATAGGGAATACAAGGTGAAAGTCCGATTGT
A. -0.152

Q. What about this sequence? AGTCAAAGTTCACTAGGTAACTTAAGATTCAGCT
A. 1.17

Q. What about this sequence? ACTATTAGTTGACGTAGGGCAACCGATACGACGC
A. 0.785
